Origin of measurements: ChEMBL document CHEMBL1139196

# assayTarget: Trypsin (Homo sapiens, UniProt P07477+P07478+P35030)
# assayProcedure: Inhibition of trypsin by FCS method
# Type: protein assay
We label by threshold. Values of IC50 strictly beneath 1000 nM are yes (1). Values of 1000 nM and up are no (0).

{"lineNotation": "N=C(N)NCCCCNC(=O)[C@@H]1C[C@@H]2CC[C@@H](O)C[C@@H]2N1C(=O)[C@@H](Cc1ccc(O)cc1)NC(=O)[C@H](O)Cc1ccc(O)cc1", "assignedClass": "yes (1)"}
{"lineNotation": "CC(C)C[C@@H](NC(=O)[C@H](O)Cc1ccc(O)cc1)C(=O)N1[C@H](C(=O)N[C@@H](CCCNC(=N)N)C(=O)O)C[C@@H]2CC[C@@H](O)C[C@@H]21", "assignedClass": "yes (1)"}
{"lineNotation": "N=C(N)NCCC[C@H](NC(=O)[C@@H]1C[C@@H]2CC[C@@H](O)C[C@@H]2N1C(=O)[C@H](Cc1ccccc1)NC(=O)[C@H](O)Cc1ccc(O)cc1)C(=O)O", "assignedClass": "no (0)"}
{"lineNotation": "N=C(N)NCCC[C@@H](CO)NC(=O)[C@@H]1C[C@@H]2CC[C@@H](O)C[C@@H]2N1C(=O)[C@@H](Cc1ccc(O)cc1)NC(=O)[C@H](O)Cc1ccc(O)cc1", "assignedClass": "no (0)"}
